# System name: T1, epitope tag peptide SRLEEELRRRLTE (SEQ ID NO: 2), biotinylated (also: biotinylated (site and linker not given here))
# T1 construct: Rationally designed peptide; also called ALFA-tag
# T1 peptide: SRLEEELRRRLTE
# Test protocol: BLI (Octet), biotinylated peptide on SAX2.0 biosensors, 1:1 global fit
Ends that are not written are not given here.
binders and their reported pKd
// returns pKd (minus log10 of molar concentration), number only

Variant 14 of humanized NbALFA (VHH) VHH: EVQLVESGGGLVQPGGSLRLSCAASGVTISALNAMAMGWYRQAPGKRREMVAAVSERGNAMYRESVKGRFTISRDNSKNTLYLQMNSLRAEDTAVYYCHVLEDRVDSFHDYWGQGTQVTVSS ... 9.66

API: the following record is the query input.
Give the reported pKd for this binder. Variant 8 of humanized NbALFA (VHH, Further engineered humanized variant; Any tag on the tested construct is not described) VHH: EVQLVESGGGLVQPGGSLRLSCAASGVTISALNAMAMGWFRQAPGKRREMVAAVSERGNAMYRESVQGRFTISRDNAKRMVYLQMNSLRAEDTAVYYCHVLEDRVDSFHDYWGQGTQVTVSS 9.58

Values compiled from patent US20260008872A1.
